assay: ovarian cancer cell viability with rucaparib, profiling panel, oncology-focused library, rucaparib conditional (AID 1508598); settings: patient-derived ovarian cancer cells, CellTiter-Glo viability, 144 h; at 0.00122 µM; OCI-C5x cells; with rucaparib 10 µM; stronger effect = lower value; 100% = cells with rucaparib alone
metric: viability (%)

>>> measured_number("O=c1cc(-c2cccc3c2Sc2ccccc2S3)oc(N2CCOCC2)c1")
122
>>> measured_number("C[C@@H](N)C1CCC(C(=O)Nc2ccncc2)CC1 (stereo partly specified)")
112
>>> measured_number("Cn1cc(C2=C(c3ccc(Cl)cc3Cl)C(=O)NC2=O)c2ccccc21")
122
>>> measured_number("NC(=O)Nc1sc(-c2ccc(F)cc2)cc1C(N)=O")
118
>>> measured_number("Cc1ccc(S(=O)(=O)/C=C/C#N)cc1")
116
>>> measured_number("Nc1nc(Cl)nc2c1ncn2[C@H]1C[C@H](O)[C@@H](CO)O1")
101

* * *

Attribute: log fold change Tl+ flux
tested on: F380Y; assay: modulators of BK channel variants, profiling panel, selectivity assay, cell-based, U2OS BacMam, thallium flux, beta subunits (AID 1259406); conditions: at 30 µM;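 further: initial slope of Thallos dye fluorescence rise after thallium is added; log ratio against the mean of 0.3% DMSO vehicle wells on the same plate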
metric: log fold change Tl+ flux

>>> measured_number("CCOC(=O)c1cc(CC)sc1NC(=O)C(Cl)(Cl)Cl")
-0.00144
>>> measured_number("COc1ccc(Cl)cc1N1C(=O)C=C(c2ccccc2)C1=O")
0.0164
>>> measured_number("Cc1cc(NC(=S)N2CCCCCC2)ccc1Br")
-0.0478
>>> measured_number("CC(=O)Nc1ccc(OCC(=O)N2CCN(c3ncc(C(F)(F)F)cc3Cl)CC2)cc1")
0.046
>>> measured_number("CCOC(=O)C(C)Oc1ccc(NS(=O)(=O)c2cc(OC)ccc2OC)cc1Cl (stereo not drawn)")
-0.0459
>>> measured_number("Cc1ccc(-c2nc(N=CNOC(=O)c3ccc([N+](=O)[O-])cc3)sc2C)cc1Cl")
0.0323
>>> measured_number("Cc1cc2c(NC(=O)c3ccccc3C(=O)O)cccc2nn1")
-0.0132
>>> measured_number("CCOC(=O)c1cc(NC(=O)CC(C)(C)CC(=O)O)ccc1N1CCCCC1")
0.0551
>>> measured_number("Cn1c(SCCS(=O)(=O)c2ccc(OC(F)(F)F)cc2)nnc1C(F)(F)F")
-0.047
>>> measured_number("Cc1ccc(S(=O)(=O)NC(=O)NCc2csc3ccc(Cl)cc23)cc1")
0.252
>>> measured_number("CCOC(=O)c1ccc(-n2sccc2=O)cc1")
-0.0987
>>> measured_number("O=C(NCCSCc1ccco1)c1cncc(Br)c1")
0.0566
>>> measured_number("O=C(ON(C(=O)c1ccc(F)cc1)C1C2CC3CC(C2)CC1C3)c1ccc(F)cc1 (stereo not drawn)")
0.0231
>>> measured_number("COC(=O)c1cncc(Br)c1")
-0.0118
>>> measured_number("CC1CC2C3CCC4=CC(=O)C=CC4(C)C3(F)C(O)CC2(C)C1(O)C(=O)CO (stereo not drawn)")
-0.000812
>>> measured_number("O=C1c2ccccc2C(=O)N1CNc1ccc(Oc2ccc(Cl)cc2)cc1")
0.0258
>>> measured_number("Cc1c(Br)sc2sc(-c3ccnc(SCc4ccccc4)n3)c(C)c12")
-0.00256
>>> measured_number("CN1CC(=O)N2[C@H](c3ccc4c(c3)OCO4)c3[nH]c4ccccc4c3C[C@@H]2C1=O")
0.0711
>>> measured_number("Cc1cc(Nc2ccc(F)cc2F)nc(SCc2c(Cl)cccc2Cl)n1")
-0.0282
>>> measured_number("C[C@]12CC3CC(N)(C1)C[C@@](C)(C3)C2")
-0.00548
>>> measured_number("CC1=NC2SC=C(c3ccccc3Cl)N2C(=O)C1 (stereo not drawn)")
-0.0123
>>> measured_number("CCOC(=O)CN(C=NC#N)c1ccc(OC)cc1")
-0.0235
>>> measured_number("Cc1cc(C(=O)ON=C(N)c2ccc([N+](=O)[O-])o2)no1")
0.0152

* * *

assay: liver-stage malaria parasite growth inhibition, primary screen, cell-based, HepG2, luciferase luminescence, HepG2 viability (AID 624349);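 further: 100% = mean of DMSO negative control wells on the same plate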; settings: P. berghei liver stage in HepG2, luciferase luminescence, concentration not given here; measured here: HepG2 viability without parasites
metric: viability

>>> result("CC(C)(O/N=C(\\C(=O)N[C@@H]1C(=O)N2C(C(=O)[O-])=C(C[n+]3ccccc3)CSC12)c1csc(N)n1)C(=O)O (some centres undefined)")
"101%"
>>> result("C[C@@H]1CC2C3C[C@H](F)C4=CC(=O)C=C[C@]4(C)[C@@]3(F)[C@@H](O)C[C@]2(C)[C@@]1(O)C(=O)CO (some centres undefined)")
"92.2%"
>>> result("CCN(CC)CCOc1ccc(C(=C(Cl)c2ccccc2)c2ccccc2)cc1")
"3.72%"
>>> result("Cc1c(C(=O)NN2CCCCC2)nn(-c2ccc(Cl)cc2Cl)c1-c1ccc(I)cc1")
"70.4%"

* * *

assay: differential killing of epithelial or mesenchymal cells, primary screen, imaging, PC-3E GFP, TEM4-18 mCherry, co-culture (AID 1345086); conditions: imaging cell counts, at 1 µM, actives lie on both sides, counts scaled to control wells, 1 = unselective;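 further: normalised mesenchymal count divided by normalised epithelial count so high means epithelial killing; cells exposed to compound for 72 h before imaging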
Returns: string. Value is Y if measured red/green cell ratio (normalised) is below 1, and N if it is greater than or equal to it.

>>> qualitative_label("C=C1OC(=O)[C@]2([C@H](C)C=CC(=O)[C@H]2O)[C@H]1O")
"N"
>>> qualitative_label("CC1(C)O[C@@H]2CC3C4C[C@H](F)C5=CC(=O)C=CC5(C)C4C(O)CC3(C)[C@]2(C(=O)CO)O1 (stereo not given in full)")
"N"
>>> qualitative_label("Nc1ccccc1S(N)(=O)=O")
"Y"
>>> qualitative_label("CC(C)OC(=O)CCC/C=C\\C[C@@H]1[C@@H](/C=C/C(O)COc2cccc(C(F)(F)F)c2)[C@H](O)C[C@@H]1O (stereo not given in full)")
"Y"
>>> qualitative_label("COc1cc(OC)c2c(c1)OC(c1ccccc1)CC2=O (stereo not given)")
"N"

* * *

test: differential killing of epithelial or mesenchymal cells, primary screen, imaging, PC-3E GFP, TEM4-18 mCherry, co-culture (AID 1345086); conditions: imaging cell counts, at 1 µM, actives lie on both sides, counts scaled to control wells, 1 = unselective;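 further: normalised mesenchymal count divided by normalised epithelial count so high means epithelial killing; cells exposed to compound for 72 h before imaging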
Rule: red/green cell ratio (normalised) of 1 or more gives Y; anything lower gives N.

>>> qualitative_label("CC1(C)CC2C1CCC1(CBr)CCC3C(CC(=O)O)C(=O)OC32C1 (stereo unspecified)")
"N"
>>> qualitative_label("C=C1C/C=C(\\C)CC[C@@H]2[C@@H]1CC2(C)C")
"Y"
>>> qualitative_label("C[C@@H]1CC2C3CCC4=CC(=O)C=C[C@]4(C)[C@@]3(F)[C@@H](O)C[C@]2(C)[C@@]1(O)C(=O)COP(=O)(O)O (stereo partly specified)")
"Y"
>>> qualitative_label("O=S(=O)([O-])OC[C@H]1O[C@@](COS(=O)(=O)[O-])(O[C@H]2O[C@H](COS(=O)(=O)[O-])[C@@H](OS(=O)(=O)[O-])[C@H](OS(=O)(=O)[O-])[C@H]2OS(=O)(=O)[O-])[C@@H](OS(=O)(=O)[O-])[C@@H]1OS(=O)(=O)[O-].[Al+3].[Na+].[Na+].[O-2].[O-2].[OH-]")
"N"
>>> qualitative_label("C/C=C/CC(C)C(O)C1C(=O)NC(CC)C(=O)N(C)CC(=O)N(C)C(CC(C)C)C(=O)NC(C(C)C)C(=O)N(C)C(CC(C)C)C(=O)NC(C)C(=O)NC(C)C(=O)N(C)C(CC(C)C)C(=O)N(C)C(CC(C)C)C(=O)N(C)C(C(C)C)C(=O)N1C (stereo unspecified)")
"N"

* * *

Attribute: growth inhibition
assay: antimalarial activity against Dd2 strain (AID 2302);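 further: 0% = DMSO untreated growth and 100% = chloroquine plus artemisinin killed control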; conditions: P. falciparum Dd2 in RBCs, LDH growth readout, 72 h; at 2 µM; stronger effect = higher value
Calls of active or inactive are those of the source.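 The calls were made as follows: active = growth inhibition above 50% at the single 2 µM test dose, taken to imply half-maximal potency below 2 µM; inactive = the rest.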
metric: growth inhibition

>>> result("O=C(/C=C/c1ccc(Cl)c(Cl)c1)NCCCCCCN1CCCN(C(=O)Nc2cccc(C(F)(F)F)c2)CC1")
"0% (inactive)"
>>> result("N#Cc1ccc(C(=O)Nc2cc(-c3cccc(O)c3)cc3[nH]ncc23)cc1")
"79% (active)"
>>> result("N=C(N)c1cc(Cl)cc(NC(=O)Nc2cc(Cl)cc(C(=N)N)c2)c1")
"92% (active)"
>>> result("CN1CCN(c2ccc(Nc3ncc(Cl)c(Nc4cccnc4C(N)=O)n3)cc2)CC1")
"97% (active)"
>>> result("Cc1[nH]c(C)c(-c2ccc(Oc3ccc(C(F)(F)F)cc3)cc2)c(=O)c1Br")
"97% (active)"
>>> result("Cc1ccc(Nc2nccc(N(C)c3ccc4c(c3)nc(NC(=O)Cc3ccc(Cl)c(Cl)c3)n4C)n2)cc1S(N)(=O)=O")
"60% (active)"
>>> result("Cc1cccc2[nH]c(-c3cccc(-c4ccc(NC(=O)Nc5ccc(Cl)c(Cl)c5)cc4)c3)nc12")
"83% (active)"
>>> result("CCCCNCc1ccc(-c2nc(CN(Cc3ccc(Cl)c(Cl)c3)C(=O)CN(C)C)cs2)cc1")
"51% (active)"
>>> result("CCN(CC)c1ccc2nc(N)nc(N)c2c1")
"-2% (inactive)"
